Data origin, for the record: patent US20030068675

# ASSAYED SYSTEM: ZFP SBS#904 (synthetic)
# Sequence (chain, as listed by the source): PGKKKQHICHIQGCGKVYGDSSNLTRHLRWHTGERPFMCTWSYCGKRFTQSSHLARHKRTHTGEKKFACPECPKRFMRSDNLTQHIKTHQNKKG
# ASSAY OVERVIEW: EMSA
# EXPERIMENTAL PARAMETERS: tags: MBP fusion
MEASURED QUANTITY: pKd
A value of pKd is the negative decimal logarithm of a concentration given in moles per litre.

Record AAGGGTGAC (dsDNA) DNA 1: AAGGGTGAC DNA 2: GTCACCCTT , field pKd: 9.00
